Tested on: Kv1.5 (Homo sapiens, UniProt P22460)
Sequence (P22460 whole entry): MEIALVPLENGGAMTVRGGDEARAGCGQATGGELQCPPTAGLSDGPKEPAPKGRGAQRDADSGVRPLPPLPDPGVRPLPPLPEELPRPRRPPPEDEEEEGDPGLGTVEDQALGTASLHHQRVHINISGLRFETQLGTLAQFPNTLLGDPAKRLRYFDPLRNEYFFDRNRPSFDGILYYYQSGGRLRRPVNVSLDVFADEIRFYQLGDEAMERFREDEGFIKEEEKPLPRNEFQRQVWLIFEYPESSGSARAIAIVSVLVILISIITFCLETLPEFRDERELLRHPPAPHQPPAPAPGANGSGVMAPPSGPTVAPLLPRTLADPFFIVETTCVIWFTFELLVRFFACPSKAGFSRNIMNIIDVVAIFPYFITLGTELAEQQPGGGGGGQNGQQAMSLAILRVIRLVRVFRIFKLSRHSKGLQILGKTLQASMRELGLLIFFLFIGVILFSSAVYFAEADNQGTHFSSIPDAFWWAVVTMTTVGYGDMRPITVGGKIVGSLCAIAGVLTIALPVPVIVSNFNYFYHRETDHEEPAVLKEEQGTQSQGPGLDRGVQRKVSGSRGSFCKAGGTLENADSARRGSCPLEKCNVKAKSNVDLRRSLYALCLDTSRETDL
Method summary: Kv1.5 channel block, estimated Kd (Table 1)
Type: binding
Recorded conditions: Kv1.5, peak; read-out: Est. Kd, Kd peak
Measured property: pKd
# pKd is unitless: minus log10 of the molar concentration; print number only

Enquiry: Identify the reported pKd for the following entry. "COc1c(C(=O)/C=C/c2cccc(O)c2)c(O)c(OC)c2occc12"
Return: 4.80

Enquiry: Identify the reported pKd for the following entry. COc1cccc(/C=C/C(=O)c2c(O)c(OC)c3occc3c2OC)c1 (single isomer, unassigned)
Return: 4.44

====

Tested on: Kv1.3 (Homo sapiens, UniProt P22001)
Sequence (P22001 whole entry): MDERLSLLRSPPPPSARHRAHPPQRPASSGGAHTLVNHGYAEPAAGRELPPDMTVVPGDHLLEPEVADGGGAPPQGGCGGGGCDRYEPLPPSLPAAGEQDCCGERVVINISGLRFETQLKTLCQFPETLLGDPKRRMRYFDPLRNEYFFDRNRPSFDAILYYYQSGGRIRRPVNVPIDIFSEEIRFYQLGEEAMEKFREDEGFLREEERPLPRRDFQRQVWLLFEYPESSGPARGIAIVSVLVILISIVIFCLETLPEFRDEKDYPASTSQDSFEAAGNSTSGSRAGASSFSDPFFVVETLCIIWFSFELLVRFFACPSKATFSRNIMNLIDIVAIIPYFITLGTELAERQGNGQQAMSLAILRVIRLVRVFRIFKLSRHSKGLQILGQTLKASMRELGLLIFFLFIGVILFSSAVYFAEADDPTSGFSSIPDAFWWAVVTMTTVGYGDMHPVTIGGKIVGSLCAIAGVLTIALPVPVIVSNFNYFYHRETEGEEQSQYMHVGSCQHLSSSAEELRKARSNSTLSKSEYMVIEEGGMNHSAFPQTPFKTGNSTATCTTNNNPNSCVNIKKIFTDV
Method summary: Kv1.3 channel block, estimated Kd (Table 1)
Type: binding
Recorded conditions: Kv1.3, peak; read-out: Est. Kd, Kd peak
Measured property: pKd
# pKd is unitless: minus log10 of the molar concentration; print number only

Enquiry: Identify the reported pKd for the following entry. "COc1c(C(=O)CCc2ccccc2)c(O)c(OC)c2occc12"
Return: 6.10

Enquiry: Identify the reported pKd for the following entry. "COc1c(C(=O)/C=C/c2cccc(C)n2)c(O)c(OC)c2occc12"
Return: 4.92

Enquiry: Identify the reported pKd for the following entry. "COc1c(C(=O)/C=C/c2cccs2)c(O)c(OC)c2occc12"
Return: 5.76

Enquiry: Identify the reported pKd for the following entry. "COc1c(O)c(C(=O)CCc2ccccc2)c(OC)c2c1OCC2"
Return: 5.70

Enquiry: Identify the reported pKd for the following entry. "COc1c(C(=O)/C=C/c2ccc[nH]2)c(O)c(OC)c2occc12"
Return: 4.52

Enquiry: Identify the reported pKd for the following entry. "COc1c(C(=O)/C=C/c2c(F)c(F)c(F)c(F)c2F)c(O)c(OC)c2occc12"
Return: 5.30

Enquiry: Identify the reported pKd for the following entry. "COc1c(C(=O)/C=C/C=C/c2ccc(N(C)C)cc2)c(O)c(OC)c2occc12"
Return: 4.66

Enquiry: Identify the reported pKd for the following entry. "COc1c(C(=O)/C=C/c2sccc2C)c(O)c(OC)c2occc12"
Return: 4.60

Enquiry: Identify the reported pKd for the following entry. "COc1c(C(=O)/C=C/c2ccc(O)cc2)c(O)c(OC)c2occc12"
Return: 5.00

Enquiry: Identify the reported pKd for the following entry. "COc1c(C(=O)/C=C/c2cccc(F)c2)c(O)c(OC)c2occc12"
Return: 4.46

Enquiry: Identify the reported pKd for the following entry. "COc1c(C(=O)/C=C/c2cccnc2)c(O)c(OC)c2occc12"
Return: 4.70

Enquiry: Identify the reported pKd for the following entry. "COc1c(C(=O)/C=C/c2ccc(C(C)C)cc2)c(O)c(OC)c2occc12"
Return: 5.52

Enquiry: Identify the reported pKd for the following entry. "COc1c(C(=O)/C=C/c2ccc(F)cc2)c(O)c(OC)c2occc12"
Return: 5.10

Enquiry: Identify the reported pKd for the following entry. "COc1ccccc1/C=C/C(=O)c1c(O)c(OC)c2occc2c1OC"
Return: 5.30

Enquiry: Identify the reported pKd for the following entry. "CCCOc1ccc(/C=C/C(=O)c2c(O)c(OC)c3occc3c2OC)cc1"
Return: 4.35

Enquiry: Identify the reported pKd for the following entry. "COc1c(C(=O)/C=C/c2ccccc2C(F)(F)F)c(O)c(OC)c2occc12"
Return: 4.40

Enquiry: Identify the reported pKd for the following entry. "COc1c(C(=O)/C=C/c2ccc(N(C)C)cc2)c(O)c(OC)c2occc12"
Return: 4.85

Enquiry: Identify the reported pKd for the following entry. "COc1c(C(=O)/C=C/c2ccco2)c(O)c(OC)c2occc12"
Return: 4.70

Enquiry: Identify the reported pKd for the following entry. "COc1c(C(=O)/C=C/c2cccc(C#N)c2)c(O)c(OC)c2occc12"
Return: 4.70

Enquiry: Identify the reported pKd for the following entry. "COc1c(C(=O)/C=C/c2ccc(Cl)cc2)c(O)c(OC)c2occc12"
Return: 5.15

Enquiry: Identify the reported pKd for the following entry. "COc1c(C(=O)/C=C/c2ccccc2)c(O)c(OC)c2occc12"
Return: 6.12

Enquiry: Identify the reported pKd for the following entry. "COc1c(C(=O)/C=C/c2ccc(NC(C)=O)cc2)c(O)c(OC)c2occc12"
Return: 4.46

Enquiry: Identify the reported pKd for the following entry. "CCN(CC)c1ccc(/C=C/C(=O)c2c(O)c(OC)c3occc3c2OC)cc1"
Return: 4.74

Enquiry: Identify the reported pKd for the following entry. "COc1c(C(=O)/C=C/c2ccccc2)c(OCc2ccccc2)c(OC)c2occc12"
Return: 5.00

Enquiry: Identify the reported pKd for the following entry. "COc1c(C(=O)/C=C/c2ccc(C)s2)c(O)c(OC)c2occc12"
Return: 5.52

Enquiry: Identify the reported pKd for the following entry. "COc1c(C(=O)/C=C/c2ccc(-c3ccccc3)cc2)c(O)c(OC)c2occc12"
Return: 4.52

Enquiry: Identify the reported pKd for the following entry. "COc1c(C(=O)/C=C/c2ccncc2)c(O)c(OC)c2occc12"
Return: 4.70

Enquiry: Identify the reported pKd for the following entry. "COc1c(C(=O)/C=C/c2ccccc2Cl)c(O)c(OC)c2occc12"
Return: 4.92

Enquiry: Identify the reported pKd for the following entry. "COc1c(C(=O)/C=C/c2ccc(C)cc2)c(O)c(OC)c2occc12"
Return: 5.82

Enquiry: Identify the reported pKd for the following entry. "COc1c(C(=O)/C=C/c2ccccc2O)c(O)c(OC)c2occc12"
Return: 4.80

Enquiry: Identify the reported pKd for the following entry. "COc1c(C(=O)/C=C/c2ccc3c(c2)OCO3)c(O)c(OC)c2occc12"
Return: 5.05

Enquiry: Identify the reported pKd for the following entry. "CCOc1ccc(/C=C/C(=O)c2c(O)c(OC)c3occc3c2OC)cc1"
Return: 5.00

Enquiry: Identify the reported pKd for the following entry. "COc1c(C(=O)/C=C/c2cc(Br)cs2)c(O)c(OC)c2occc12"
Return: 5.40

Enquiry: Identify the reported pKd for the following entry. "COc1c(C(=O)/C=C/c2cccn2C)c(O)c(OC)c2occc12"
Return: 4.40

Enquiry: Identify the reported pKd for the following entry. "COc1c(C(=O)/C=C/c2ccccc2C)c(O)c(OC)c2occc12"
Return: 5.70

Enquiry: Identify the reported pKd for the following entry. "COc1c(C(=O)/C=C/c2ccc(C#N)cc2)c(O)c(OC)c2occc12"
Return: 4.92
